Tested on: human lung cancer strain NCI-H441
Type: cell-based
Description: A test compound was dispensed into a U-bottom 384-well plate as 40 nL serially diluted dimethyl sulfoxide solutions using a liquid handler Echo (LABCYTE). […] This cell suspension was dispensed in an amount of 40 µL per well into a plate containing the test compound, and cultured at 37°C in a 5% carbon dioxide gas incubator. Four days later, 20 µL of CellTiter-Glo (registered trademark) (Promega) was added to each well and […] was measured. […]
METRIC_NAME: pIC50
pIC50 is a log-scale quantity: -log10 of the concentration expressed in molar.

Prompt: Hi! What's the reported pIC50 for CCO[C@@H]1CCN2C(=O)[C@H](CCc3cc(F)c(C(F)(F)F)c(F)c3)NC(=O)CN(C)C(=O)[C@H](Cc3ccc(C(F)(F)F)cc3)N3CCCCC[C@@H](C3=O)N(C)C(=O)CN(C)C(=O)[C@H]([C@@H](C)CC)NC(=O)[C@H](CC(C)C)N(C)C(=O)C[C@@H](C(=O)N3CCOCC3)N(C)C(=O)[C@H](C3CCCC3)N(C)C(=O)C3(CCC3)NC(=O)[C@H]12 on human lung cancer strain NCI-H441?
Completion: 6.52

Prompt: Hi! What's the reported pIC50 for CCC[C@H]1C(=O)N[C@@H]([C@@H](C)CC)C(=O)N(C)CC(=O)N(C)[C@H]2C/C=C\CCN(C2=O)[C@@H](Cc2ccc(C)cc2)C(=O)N(C)CC(=O)N[C@@H](CCc2ccc3sc(F)c(C)c3c2)C(=O)N2C[C@H](OCC)C[C@H]2C(=O)NC2(CC(C)(C)C2)C(=O)N(C)[C@@H](C(CC)CC)C(=O)N(C)[C@H](C(=O)N(C)C)CC(=O)N1C on human lung cancer strain NCI-H441?
Completion: 8.02

Prompt: Hi! What's the reported pIC50 for CC[C@H](C)[C@@H]1NC(=O)[C@H](CC(C)C)N(C)C(=O)C[C@@H](C(=O)N2CCOCC2)N(C)C(=O)[C@H](C2CCCC2)N(C)C(=O)C2(CC2)NC(=O)[C@@H]2CCCN2C(=O)[C@H](CCc2cc(F)c(C(F)(F)F)c(F)c2)NC(=O)CN(C)C(=O)[C@H](Cc2ccc(C(F)(F)F)cc2)N2CCCC[C@@H](C2=O)N(C)C(=O)CN(C)C1=O on human lung cancer strain NCI-H441?
Completion: 7.64

----------
Please respond with reported Kd for every item in the list.
TEST_TARGET: GDP-bound KRAS wild-type protein (Homo sapiens, UniProt P01116)
Sequence (P01116 1-188 isoform P01116-2): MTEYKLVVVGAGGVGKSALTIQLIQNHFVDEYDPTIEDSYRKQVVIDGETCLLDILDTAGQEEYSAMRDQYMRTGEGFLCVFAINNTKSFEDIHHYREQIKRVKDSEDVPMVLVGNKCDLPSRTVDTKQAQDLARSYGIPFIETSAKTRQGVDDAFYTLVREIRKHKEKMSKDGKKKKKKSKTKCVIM
ASSAY_DETAILS: Binding to KRAS by surface plasmon resonance (SPR), dissociation constant KD
MEASUREMENT_SETUP: Single Cycle Kinetics
Record the value in nM, omitting the unit from your answer.

Prompt: Quick one: Kd of CCC[C@@H]1NC(=O)C[C@@H](C(=O)N(C)C)N(C)C(=O)[C@H](C2CCCC2)N(C)C(=O)C2(CC(C)(C)C2)NC(=O)[C@@H]2C[C@@H](OCC)CN2C(=O)[C@H](CCc2ccc(C(F)(F)F)c(OC)c2)NC(=O)CN(C)C(=O)[C@H](Cc2ccc(C(F)(F)F)cc2)N2CC/C=C\C[C@@H](C2=O)N(C)C(=O)CN(C)C(=O)[C@H]([C@@H](C)CC)NC1=O ?
Completion: 0.16

Prompt: Quick one: Kd of CCC[C@H]1C(=O)N[C@@H]([C@@H](C)CC)C(=O)N(C)CC(=O)N(C)[C@H]2C/C=C\CCN(C2=O)[C@@H](Cc2ccc(C)cc2)C(=O)N(C)CC(=O)N[C@@H](CCc2ccc(C(F)(F)F)c(OC)c2)C(=O)N2CC3(CC3)C[C@H]2C(=O)N(C)C2(CCC2)C(=O)N(C)[C@@H](C(CC)CC)C(=O)N(C)[C@H](C(=O)N(C)C)CC(=O)N1C ?
Completion: 0.13

Prompt: Quick one: Kd of CC[C@H](C)[C@@H]1NC(=O)[C@H](CC(C)C)N(C)C(=O)C[C@@H](C(=O)N2CCOCC2)N(C)C(=O)[C@H](C2CCCC2)N(C)C(=O)C2(CCC2)NC(=O)[C@]2(C)CCCN2C(=O)[C@H](CCc2cc(F)c(C(F)(F)F)c(F)c2)NC(=O)CN(C)C(=O)[C@H](Cc2ccc(C(F)(F)F)cc2)N2CCCCC[C@@H](C2=O)N(C)C(=O)CN(C)C1=O ?
Completion: 0.36

----------
TEST_TARGET: UniProt P01116
ASSAY_DETAILS: Binding to KRAS by surface plasmon resonance (SPR), dissociation constant KD
MEASUREMENT_SETUP: Single Cycle Kinetics, 1:1 binding model
Method: Surface plasmon resonance was used to analyze the binding affinity of compounds for KRAS, NRAS, and HRAS. […] The resulting sensorgram was subjected to curve fitting based on a 1:1 binding model on Biacore Insight Evaluation Software or T200 Evaluation Software, and thereby the dissociation constant KD of each compound with respect to KRAS, NRAS, and HRAS was determined. […]
METRIC_NAME: pKd
pKd is a log-scale quantity: -log10 of the concentration expressed in molar.

Prompt: Quick one: pKd of CCC[C@H]1C(=O)N[C@@H]([C@@H](C)CC)C(=O)N(C)CC(=O)N(C)[C@H]2C/C=C\CCN(C2=O)[C@@H](Cc2ccc(C)cc2)C(=O)N(C)CC(=O)N[C@@H](CCc2cc(F)c(C(F)(F)F)c(F)c2)C(=O)N2C[C@H](OCC)C[C@H]2C(=O)NC2(CC(C)(C)C2)C(=O)N(C)[C@@H](C(CC)CC)C(=O)N(C)[C@H](C(=O)N(C)C)CC(=O)N1C ?
Completion: 9.59

Prompt: Quick one: pKd of CCO[C@@H]1C[C@H]2C(=O)NC3(CCC3)C(=O)N(C)[C@@H](C3CCCC3)C(=O)N(C)[C@H](C(=O)N3CCOCC3)CC(=O)N(C)[C@@H](CC)C(=O)N[C@@H]([C@@H](C)CC)C(=O)N(C)CC(=O)N(C)[C@H]3CC[C@@H](C)CN(C3=O)[C@@H](Cc3ccc(C(F)(F)F)cc3)C(=O)N(C)CC(=O)N[C@@H](CCc3ccc(C(F)(F)F)c(Cl)c3)C(=O)N2C1 ?
Completion: 10.09

----------
TEST_TARGET: GDP-bound KRAS wild-type protein (Homo sapiens)
ASSAY_DETAILS: Binding to KRAS by surface plasmon resonance (SPR), dissociation constant KD
MEASUREMENT_SETUP: Single Cycle Kinetics
Please respond with reported pKd for every item in the list.
pKd is a log-scale quantity: -log10 of the concentration expressed in molar.

Prompt: Quick one: pKd of CCC[C@H]1C(=O)N[C@@H](C2CCCC2)C(=O)N(C)CC(=O)N(C)[C@H]2C/C=C\CCN(C2=O)[C@@H](Cc2ccc(C)cc2)C(=O)N(C)CC(=O)N[C@@H](CCc2ccc(C(F)(F)F)c(Cl)c2)C(=O)N2CC3(CC3)C[C@H]2C(=O)N(C)C2(CCC2)C(=O)N(C)[C@@H](C2CCCC2)C(=O)N(C)[C@H](C(=O)N(C)C)CC(=O)N1C ?
Completion: 10.20

Prompt: Quick one: pKd of C#CC[C@H]1C(=O)N[C@@H]([C@@H](C)CC)C(=O)N2CCC[C@H]2C(=O)N(C)[C@H]2C/C=C\CCN(C2=O)[C@@H](Cc2ccc(C(F)(F)F)cc2)C(=O)N(C)CC(=O)N[C@@H](CCc2ccc(C(F)(F)F)c(OC)c2)C(=O)N2C[C@H](OCC)C[C@H]2C(=O)N(C)C2(CCC2)C(=O)N(C)[C@@H](C2CCCC2)C(=O)N(C)[C@H](C(=O)N(C)C)CC(=O)N1C ?
Completion: 10.09

Prompt: Quick one: pKd of CCC[C@H]1C(=O)N[C@@H]([C@@H](C)CC)C(=O)N(C)CC(=O)N(C)[C@H]2C/C=C\CCN(C2=O)[C@@H](Cc2ccc(C(F)(F)F)cc2)C(=O)N(C)CC(=O)N[C@@H](CCc2ccc(C(F)(F)F)c(OC)c2)C(=O)N2CC3(CC3)C[C@H]2C(=O)N(C)C2(CCC2)C(=O)N(C)[C@@H]([C@@H](C)CC)C(=O)N(C)[C@H](C(=O)N(C)C)CC(=O)N1C ?
Completion: 9.07

----------
Test system: human pancreatic cancer strain KP4
Assay type: cell-based
METRIC_NAME: IC50 (nM)
Record the value in nM, omitting the unit from your answer.

Prompt: Quick one: IC50 of CCC[C@H]1C(=O)N[C@@H]([C@@H](C)CC)C(=O)N(C)CC(=O)N(C)[C@H]2C/C=C\CCN(C2=O)[C@@H](Cc2ccc(C(F)(F)F)cc2)C(=O)N(C)CC(=O)N[C@@H](CCc2ccc(Cl)c(Cl)c2)C(=O)N2C[C@H](OCC)C[C@H]2C(=O)NC2(CC(C)(C)C2)C(=O)N(C)[C@@H](C(CC)CC)C(=O)N(C)[C@H](C(=O)N(C)C)CC(=O)N1C ?
Completion: 102

Prompt: Quick one: IC50 of CCO[C@@H]1C[C@H]2C(=O)OC3(CCC3)C(=O)N(C)[C@@H](C3CCCC3)C(=O)N(C)[C@H](C(=O)N(C)C)CC(=O)N(C)[C@@H]([C@@H](C)OC)C(=O)N[C@@H]([C@@H](C)CC)C(=O)N3CCC[C@H]3C(=O)N(C)[C@H]3C/C=C\CCN(C3=O)[C@@H](Cc3ccc(C(F)(F)F)cc3)C(=O)N(C)CC(=O)N[C@@H](CCc3ccc(C(F)(F)F)c(OC)c3)C(=O)N2C1 ?
Completion: 8.2

Prompt: Quick one: IC50 of CCO[C@@H]1C[C@H]2C(=O)OC3(CCC3)C(=O)N(C)[C@@H](C3CCCC3)C(=O)N(C)[C@H](C(=O)N(C)C)CC(=O)N(C)[C@@H]([C@@H](C)OC)C(=O)N[C@@H]([C@@H](C)CC)C(=O)N(C)CC(=O)N(C)[C@H]3C/C=C\CCN(C3=O)[C@@H](Cc3ccc(C(F)(F)F)cc3)C(=O)N(C)CC(=O)N[C@@H](CCc3ccc(C(F)(F)F)c(OC)c3)C(=O)N2C1 ?
Completion: 6.8
